- System: NCI-H322M lung
- TEST: NCI-60 one-dose screen, 48 h (100 = growth as untreated, 0 = no growth, -100 = all killed)
- CONDITION INFO: 10 µM unless noted
This is part of a sample that, as a whole, favours compounds with a hit. Of some 83,000 tested, about 20% had one in any assay.
QUANTITY MEASURED: growth (%)

COMPOUND	UNIT ABBREVIATION	REPORTED MEASUREMENT
[N-]=[N+]=NC(C(=O)O)c1ccccc1 (centres undefined)	%	101
O=C1C=CC(=O)C2C1C1(Cl)C(Cl)=C(Cl)C2(Cl)C1(Cl)Cl (centres undefined)	%	77.2
CC(=O)Oc1ccc(Cl)cc1	%	106
C[C@]12CC[C@@H]3c4ccc(OC(=O)Cc5ccc(N(CCCl)CCCl)cc5)cc4CC[C@H]3[C@@H]1CC[C@@H]2OC(=O)Cc1ccc(N(CCCl)CCCl)cc1	%	100
N#Cc1ncc(/N=C/c2ccc(N(CCCl)CCCl)cc2)s1	%	121
Nc1ccc(N)c2c1Oc1ccccc1O2	%	97.2
CNC(=O)Oc1cccc(N(C)C)c1	%	102
CC(=O)N(C)C1=Nc2ccc(Cl)cc2C(c2ccccc2)=[N+]([O-])C1	%	82.6
O=[N+]([O-])c1ccc(/C=C/C=C/c2ccc(S(=O)(=O)F)cc2)c(Cl)c1	%	94.7

====

Here, each record is paired with measured growth data.
- Tested on: HL-60(TB) leukemia
- TEST: NCI-60 one-dose screen, 48 h (100 = growth as untreated, 0 = no growth, -100 = all killed)
- CONDITION INFO: 10 µM unless noted
This is part of a sample that, as a whole, favours compounds with a hit. Of some 83,000 tested, about 20% had one in any assay.

COMPOUND	growth [%]
O=C(Nc1ccccc1)OCC1OCOC(COC(=O)Nc2ccccc2)C1OC(=O)Nc1ccccc1 (stereo not drawn)	122
COc1ccc(-c2[nH]c3ccc(OC)cc3c2C=C(C#N)C#N)cc1	-43.1
COc1ccc(N(C)c2nc(Cl)nc3ccn(C)c23)cc1	-35.3
COc1ccc(-c2nc3c(c(-c4ccc(Cl)cc4)nn3-c3ccccc3)c(-c3ccc(O)cc3)c2C#N)cc1	22.7
Cn1ccc(=O)c(S(N)(=O)=O)c1	96.4
CN(C)C/C=C/C(=O)Nc1cc2c(Nc3ccc(F)c(Cl)c3F)ncnc2cc1OCCOC(F)F	13.2
Cn1cnc([N+](=O)[O-])c1Sc1nnc(-c2ccccc2)c(-c2ccccc2)n1	104
O=C(Nc1ccccc1F)Nc1ccccc1Cl	52
CCSc1oc(C)nc1[P+](c1ccccc1)(c1ccccc1)c1ccccc1	7.21
CC1CCC(C)N(C)C1 (stereo not drawn)	96.2
COc1ccc(-c2cc3c(oc2=O)-c2ccccc2OC3OC(C)=O)cc1 (stereo not drawn)	85.8
Cn1c(=O)c2c(nc(Nc3cc(=O)[nH]c(=O)[nH]3)n2Cc2ccccc2)n(C)c1=O	90.6
CC[C@H](C)C(=O)O[C@H]1CCC=C2C=C[C@H](C)[C@H](CC[C@@H]3CC=CC(=O)O3)[C@H]21	-0.21

====

Here, each record is paired with measured growth data.
- System: HL-60(TB) leukemia
- TEST: NCI-60 one-dose screen, 48 h (100 = growth as untreated, 0 = no growth, -100 = all killed)
- CONDITION INFO: 10 µM unless noted
- Experimental: Growth inhibition of the HL-60(TB) human tumor cell line is measured as a screen for anti-cancer activity. Cells are grown in 96 well plates and exposed to the test compound for 48 hours. Compounds are tested at a single concentration, which is 10^-5 M for most compounds. The reported endpoint is percent growth (GI% or GIPRCNT), where numbers from 0 - 100% represent growth inhibition, and numbers from -100% - 0 represent cell death. For example, a value of 40 represents 60% growth inhibition. […]
This is part of a sample that, as a whole, favours compounds with a hit. Of some 83,000 tested, about 20% had one in any assay.
QUANTITY MEASURED: growth (%)

COMPOUND	REPORTED MEASUREMENT
Cc1ccc(NC(=O)C2CCC(CN3CCN(C)CC3)CC2)cc1Nc1nccc(-c2cccnc2)n1 (stereo unspecified)	110
CC(=O)N[C@H](C(=O)N[C@@H](CCCNC(=N)N)C(=O)N[C@@H](CCCCN)C(=O)N[C@@H](CCCNC(=N)N)C(=O)N[C@]1(C)CCCCCC/C=C\CCC[C@@](C)(C(=O)N[C@@H](CCCNC(=N)N)C(=O)N[C@@H](CCC(=O)O)C(=O)N[C@@H](CC(C)C)C(=O)N[C@H](C(=O)N[C@@H](CCC(=O)O)C(N)=O)C(C)C)NC(=O)[C@H](CCC(N)=O)NC(=O)[C@H](CC(C)C)NC(=O)[C@H](CC(C)C)NC(=O)[C@H](CCCNC(=N)N)NC(=O)[C@H](CCCNC(=N)N)NC(=O)[C@H](CC(C)C)NC1=O)C(C)C	15.9
COc1cccc(N2CCN(CC(=O)N3CCN(c4nnc(-c5ccc(Cl)cc5)c(-c5ccc(Cl)cc5)n4)CC3)CC2)c1	20.6
COc1ccc(C2=Nc3c(N)ncnc3NC(c3ccc4c(c3)OCO4)C2)cc1 (stereo unspecified)	124
NS(=O)(=O)c1ccc(-n2ncc3c(NC4CCCCC4)ncnc32)cc1	70.7
O=C(/C=C(O)/C=C/c1cccc2[nH]ccc12)/C=C/c1cccc2[nH]ccc12	39.4
COc1cccc(C2CC(=O)Nc3cc4c(cc32)OCO4)c1OC (stereo unspecified)	93.7
O=C=NC(c1ccccc1)(c1ccccc1)c1ccccc1	102
CCC1=CC2CN(C1)Cc1c([nH]c3ccccc13)[C@@](C(=O)OC)(c1cc3c(cc1OC)N(C)[C@H]1[C@@](O)(C(=O)OC)[C@H](OC(C)=O)[C@]4(CC)C=CCN5CC[C@]31[C@@H]54)C2 (stereo partly specified)	-15.6
O=C1NC(=O)c2ncccc21	115
CSc1nc2sc3cccc(Cl)c3n2c(=N)c1C#N	91.8
CCO/C=N/C1=C(C#N)C(c2ccc(F)cc2)c2sc3c(F)cccc3c2O1 (stereo unspecified)	6.35
CCN(CC)CCCNCc1cc(-c2ccccc2)nc2cc(Cl)ccc12	14
COc1ccc(-n2nc(C(=O)NCC(=O)O)nc2-c2ccccc2)cc1	96.3
O=C(NC1CC1)c1ccc(-c2nc3ccc4[nH]ncc4c3c3c2CCCC3)cc1	28.6
C=C1C(=O)O[C@H]2[C@H]1CC/C(COC(=O)CCSSCCC(=O)OC/C1=C/CC[C@@]3(C)O[C@H]3[C@H]3OC(=O)C(=C)[C@@H]3CC1)=C\CC[C@@]1(C)O[C@@H]21	-47.9
Nc1nc(Nc2ccc(F)cc2)nn1C(=O)c1cc(Cl)ccc1Cl	65.1
CN1CCN(c2ccc(C(=O)Nc3n[nH]c4ccc(Cc5cc(F)cc(F)c5)cc34)c(NC3CCOCC3)c2)CC1	-57.1
O=C1NC2(Nc3ccccc31)C(=O)Nc1c(Cl)cc(Cl)cc12 (stereo unspecified)	106
COc1cc(C2=NN(C=O)C(c3cccc(Nc4ccnc5cc(Cl)ccc45)c3)C2)cc(OC)c1OC (stereo unspecified)	75.4
CN(C)CC(C)(CN(C)C)C(=O)/C=C/c1c(Cl)cccc1Cl	-5.28

====

Here, each record is paired with measured growth data.
- Test system: HL-60(TB) leukemia
- TEST: NCI-60 one-dose screen, 48 h (100 = growth as untreated, 0 = no growth, -100 = all killed)
- CONDITION INFO: 10 µM unless noted
Compounds without any hit were thinned out: in the full panel of roughly 83,000, 20% have a hit.

MOLECULE	growth, %
O=C1C=CC(Nc2ccccc2[N+](=O)[O-])C1Nc1ccccc1[N+](=O)[O-] (stereo not given)	25.1
CCSc1oc(-c2ccccc2)nc1[P+](c1ccccc1)(c1ccccc1)c1ccccc1	-35.1
N#CC1=C(N)Oc2c(sc3c(Br)cccc23)C1c1ccc([N+](=O)[O-])cc1 (stereo not given)	-13.7
CC(C)(C)c1cc(C(=O)N2CCC(C(=O)NCCN)CC2)cc(C(C)(C)C)c1	90.5
c1ccc(-c2nn(-c3ccccc3)[n+](-c3ccccc3-c3ccccc3)n2)cc1	-31.4
COC(=O)C1=C(C)C(=O)CC1	86.7
Nc1ccccc1-c1ccn[nH]1	95.6
O=c1[nH]c(CN2CCN(c3ccccc3)CC2)nc2c(Br)cc(Br)cc12	99.2
O=C1/C=C/[C@@H](O)[C@@H]2C[C@@H](O)C[C@H]2/C=C/CCC[C@H](CCO)O1	3.3
CCN1C(=O)N(CC)C2C1NN=c1s/c(=C3\C(=O)N(CC(C)C)c4ccccc43)c(=O)n12 (stereo not given)	-43.8

====

- System: HL-60(TB) leukemia
- TEST: NCI-60 one-dose screen, 48 h
- CONDITION INFO: 10 µM unless noted
The panel holds about 83,000 compounds, 20% with a hit somewhere; the sample as a whole holds those more often. The source made the active and inactive calls. Rule for the calls: active = growth percent below 10; inactive = the rest.
Possible outcomes: active, inactive

COMPOUND	LABEL
CCCCCCC/C=C/[C@H]1O[C@]23C(=O)C[C@@]4(C[C@@H](OC5OC(CO)C(O)C(O)C5O)C[C@@H]4[C@H]2C=C1C)OC3=O (stereo not given in full)	active
CC(=O)OC/C=C(/C)C[P+](c1ccccc1)(c1ccccc1)c1ccccc1	inactive
COC(=O)c1c2c(c(C)[n+]([O-])c1C)C(=O)C(NCc1ccc(F)cc1)=CC2=O	active
O=c1c2cccc(F)c2sc2c(NCCCNCCO)nc3ccccc3c12	active
O=C(NCc1ccco1)Nc1cccc2c(NC(=O)NCc3ccco3)cccc12	inactive
